test: The compound was tested for inhibitory activity against gp120 binding to CD4 of peripheral blood lymphocytes (PBL); assay type: functional, Homo sapiens
MEASURE: IC50 (µM)
Field format: number, assumed µM, no unit text.

Challenge: For the compound CC(C)CCCC(C)[C@H]1CC[C@H]2[C@@H]3CCC4C[C@@H](CCC=C(c5cc(Cl)c(O)c(C(=O)O)c5)c5cc(Cl)c(O)c(C(=O)O)c5)CC[C@]4(C)[C@H]3CC[C@]12C (stereo partly specified) , give its measured IC50 value.
Response given: 7.8
